Hello, the source for this data is paper doi:10.1101/2024.08.19.608619, in case you need it.

# systemTested: PDE4D2 (h) (Homo sapiens, UniProt Q08499)
# Construct: purchased Eurofins Cerep (SafetyScreen44), recognised from the panel format
# Sequence (Q08499 303-809): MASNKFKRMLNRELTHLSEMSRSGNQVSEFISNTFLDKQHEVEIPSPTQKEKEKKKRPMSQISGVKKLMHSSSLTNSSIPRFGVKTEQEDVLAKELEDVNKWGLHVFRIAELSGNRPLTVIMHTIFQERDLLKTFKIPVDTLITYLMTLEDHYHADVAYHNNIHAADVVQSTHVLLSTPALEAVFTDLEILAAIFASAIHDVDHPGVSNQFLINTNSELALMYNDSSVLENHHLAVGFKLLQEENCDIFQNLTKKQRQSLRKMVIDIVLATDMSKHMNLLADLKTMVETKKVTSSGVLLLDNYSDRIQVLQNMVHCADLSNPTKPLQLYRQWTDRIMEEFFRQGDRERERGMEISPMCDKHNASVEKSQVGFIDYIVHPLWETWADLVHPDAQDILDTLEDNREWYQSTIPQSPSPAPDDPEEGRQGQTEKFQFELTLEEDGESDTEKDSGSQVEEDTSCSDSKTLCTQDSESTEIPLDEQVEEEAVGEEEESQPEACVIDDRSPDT
# protocol: In vitro CEREP profiling, PDE4D2 (h)
# Format: biochemical
# settings: test compound concentration 10 uM; Enzyme and Cell-based assays
Parameter: perc_inhibition: % inhibition of control enzyme activity, PDE4D2 (h). Scope: all listed entries.
Reply numerically in %, unit not repeated.

{"entrySmiles": "CC(C)[C@H](Nc1ncnc2[nH]ccc12)c1ccc2c(c1)S(=O)(=O)CCC2", "recordedValue": 36}
{"entrySmiles": "CNCc1cc(-c2cc3c(N[C@@H](c4ccc5c(c4)S(=O)(=O)CCC5)C(C)C)ncnc3[nH]2)co1", "recordedValue": 43}
{"entrySmiles": "CC(C)[C@@H](Nc1ncnc2[nH]c(-c3cnn(C)c3C#N)cc12)c1ccc2c(n1)OCCO2", "recordedValue": 44}
{"entrySmiles": "COc1ccc([C@H](Cc2nnn[nH]2)NC(=O)c2ncnc3[nH]ccc23)cc1", "recordedValue": 41}
{"entrySmiles": "CC(C)[C@H](Nc1ncnc2[nH]c(-c3cnn(C)c3C#N)cc12)c1ccc2c(n1)OCCO2", "recordedValue": 70}

[in] Give reported perc_inhibition: % inhibition of control enzyme activity, PDE4D2 (h) value for Cn1ncc(-c2cc3c(N[C@@H](c4ccc5c(n4)OCCO5)C(C)(C)C)ncnc3[nH]2)c1C#N
[out] 20

[in] Give reported perc_inhibition: % inhibition of control enzyme activity, PDE4D2 (h) value for C[C@H](C(=O)O)[C@@H](NC(=O)c1ncnc2[nH]ccc12)c1ccc(Br)cc1
[out] 30

----------
Parameter: perc_inhibition (% inhibition of the binding of a ligand specific for each target). Scope: all listed entries.
# systemTested: 5-HT2A (h) (Homo sapiens, UniProt P28223)
# Construct: purchased Eurofins Cerep (SafetyScreen44), recognised from the panel format
# Sequence (P28223 whole entry): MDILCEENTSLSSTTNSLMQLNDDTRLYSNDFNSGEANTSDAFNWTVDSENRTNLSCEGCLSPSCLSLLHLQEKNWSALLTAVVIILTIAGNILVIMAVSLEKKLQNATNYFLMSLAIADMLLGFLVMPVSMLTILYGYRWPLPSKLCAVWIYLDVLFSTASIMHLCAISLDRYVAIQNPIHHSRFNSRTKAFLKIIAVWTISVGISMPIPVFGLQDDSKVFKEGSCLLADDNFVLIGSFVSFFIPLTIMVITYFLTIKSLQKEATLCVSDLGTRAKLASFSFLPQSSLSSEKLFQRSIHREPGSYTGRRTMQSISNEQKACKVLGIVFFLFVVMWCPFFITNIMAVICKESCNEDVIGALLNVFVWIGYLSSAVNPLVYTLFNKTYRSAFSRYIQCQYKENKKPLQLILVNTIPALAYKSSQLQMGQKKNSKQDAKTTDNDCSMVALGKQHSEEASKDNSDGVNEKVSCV
# protocol: In vitro CEREP profiling, 5-HT2A (h) (agonist radioligand)
# Type: binding
# settings: test compound concentration 10 uM
Reply numerically in %, unit not repeated.

Here is how some compounds turned out for perc_inhibition (% inhibition of the binding of a ligand specific for each target).
{"compound": "CC(C)[C@@H](Nc1ncnc2[nH]c(-c3cnn(C)c3C#N)cc12)c1ccc2c(n1)OCCO2 [ASAP-0010716]", "recordedValue": 14}
{"compound": "Cn1ncc(-c2cc3c(N[C@@H](c4ccc5c(n4)OCCO5)C(C)(C)C)ncnc3[nH]2)c1C#N [ASAP-0011221]", "recordedValue": -2}

Proceeding to the next compound to report its perc_inhibition (% inhibition of the binding of a ligand specific for each target).
[in] Give reported perc_inhibition (% inhibition of the binding of a ligand specific for each target) value for CNCc1cc(-c2cc3c(N[C@@H](c4ccc5c(c4)S(=O)(=O)CCC5)C(C)C)ncnc3[nH]2)co1 [ASAP-0011176]
[out] 29

----------
Parameter: perc_recovery_a_to_b_mean. Scope: all listed entries.
# protocol: Permeability Papp (AB) MDR1/MDCKII
# settings: In vitro MDR1-MDCKII permeability, recovery A to B, no inhibitor

Here is how some molecules turned out for perc_recovery_a_to_b_mean.
{"molecule": "CNC(=O)c1c[nH]c2ncnc(N[C@@H](c3ccc4c(c3)S(=O)(=O)CCC4)C(C)C)c12 [ASAP-0011156]", "perc_recovery_a_to_b_mean": "78.7%"}
{"molecule": "CC(C)[C@H](Nc1ncnc2[nH]c(-c3cnn(CC(N)=O)c3)cc12)c1ccc2c(c1)S(=O)(=O)CCC2 (single isomer, unassigned) [ASAP-0011428]", "perc_recovery_a_to_b_mean": "65.5%"}
{"molecule": "CC(C)[C@@H](Nc1ncnc2[nH]c(-c3ccc4nnn(C)c4c3)cc12)c1ccc2c(c1)S(=O)(=O)CCC2 [ASAP-0011201]", "perc_recovery_a_to_b_mean": "53.6%"}
{"molecule": "CC(C)(C)[C@H](Nc1ncnc2[nH]c(-c3cnn(CC(N)=O)c3)cc12)c1ccc2c(c1)OCCO2 (single isomer, unassigned) [ASAP-0012330]", "perc_recovery_a_to_b_mean": "67.4%"}
{"molecule": "CC(C)[C@H](Nc1ncnc2[nH]c(C(=O)N[C@@H]3CCN(C)C3)cc12)c1ccc2c(c1)S(=O)(=O)CCC2 [ASAP-0011196]", "perc_recovery_a_to_b_mean": "103.0%"}

[in] Give reported perc_recovery_a_to_b_mean value for CC(C)[C@H](Nc1ncnc2[nH]c(-c3cnn(C)c3C#N)cc12)c1ccc2c(c1)NC(=O)CO2 (single isomer, unassigned) [ASAP-0013256]
[out] 78.9%

[in] Give reported perc_recovery_a_to_b_mean value for CC(C)[C@H](Nc1ncnc2[nH]cc(C(=O)NC3CC3)c12)c1ccc2c(c1)S(=O)(=O)CCC2 (single isomer, unassigned) [ASAP-0011247]
[out] 71.5%

[in] Give reported perc_recovery_a_to_b_mean value for Cn1ncc(-c2cc3c(N[C@@H](c4ccc5c(n4)OCCO5)C(C)(C)C)ncnc3[nH]2)c1C#N [ASAP-0011221]
[out] 94.8%

[in] Give reported perc_recovery_a_to_b_mean value for CC(C)[C@H](Nc1ncnc2[nH]c(-c3cnn(CC(N)=O)c3)cc12)c1ccc2c(n1)OCCO2 [ASAP-0012307]
[out] 100.0%
